Data credit: the supplement of paper PMC11246515

Below, each entry is listed alongside its reported total protein half-life in vivo.
# measurement notes: total protein half-life in vivo (active degradation + dilution); higher = more stable protein
# conditions: wild type E. coli NCM3722; growth: N-lim chemostat; doubling time 6 h
Field format: number, assumed h, no unit text.

- MIDDDGYRPNVGIVICNRQGQVMWARRFGQHSWQFPQGGINPGESAEQAMYRELFEEVGLSRKDVRILASTRNWLRYKLPKRLVRWDTKPVCIGQKQKWFLLQLVSGDAEINMQTSSTPEFDGWRWVSYWYPVRQVVSFKRDVYRRVMKEFASVVMSLQENTPKPQNASAYRRKRG [P0A776]: 4.84
- MRVLGIETSCDETGIAIYDDEKGLLANQLYSQVKLHADYGGVVPELASRDHVRKTVPLIQAALKESGLTAKDIDAVAYTAGPGLVGALLVGATVGRSLAFAWDVPAIPVHHMEGHLLAPMLEDNPPEFPFVALLVSGGHTQLISVTGIGQYELLGESIDDAAGEAFDKTAKLLGLDYPGGPLLSKMAAQGTAGRFVFPRPMTDRPGLDFSFSGLKTFAANTIRDNGTDDQTRADIARAFEDAVVDTLMIKCKRALDQTGFKRLVMAGGVSANRTLRAKLAEMMKKRRGEVFYARPEFCTDNGAMIAYAGMVRFKAGATADLGVSVRPRWPLAELPAA: 3.33
- MNEQSQAKSPEALRAMVAGTLANFQHPTLKHNLTTLKALHHVAWMDDTLHVELVMPFVWHSAFEELKEQCSAELLRITGAKAIDWKLSHNIATLKRVKNQPGINGVKNIIAVSSGKGGVGKSSTAVNLALALAAEGAKVGILDADIYGPSIPTMLGAENQRPTSPDGTHMAPIMSHGLATNSIGYLVTDDNAMVWRGPMASKALMQMLQETLWPDLDYLVLDMPPGTGDIQLTLAQNIPVTGAVVVTTPQDIALIDAKKGIVMFEKVEVPVLGIVENMSVHICSNCGHHEPIFGTGGAEKLAEKYHTQLLGQMPLHISLREDLDKGTPTVISRPESEFTAIYRQLADRVAAQLYWQGEVIPGEISFRAV [P0AF08]: 3.71
- MLRFSANLSMLFGEYDFLARFEKAAQCGFRGVEFMFPYDYDIEELKHVLASNKLEHTLHNLPAGDWAAGERGIACIPGREEEFRDGVAAAIRYARALGNKKINCLVGKTPAGFSSEQIHATLVENLRYAANMLMKEDILLLIEPINHFDIPGFHLTGTRQALKLIDDVGCCNLKIQYDIYHMQRMEGELTNTMTQWADKIGHLQIADNPHRGEPGTGEINYDYLFKVIENSDYNGWVGCEYKPQTTTEAGLRWMDPYR: 3.73

Turning now to a further sequence:
Query: Provide total protein half-life in vivo value for the following sequence: `MRWQGRRESDNVEDRRNSSGGPSMGGPGFRLPSGKGGLILLIVVLVAGYYGVDLTGLMTGQPVSQQQSTRSISPNEDEAAKFTSVILATTEDTWGQQFEKMGKTYQQPKLVMYRGMTRTGCGAGQSIMGPFYCPADGTVYIDLSFYDDMKDKLGADGDFAQGYVIAHEVGHHVQKLLGIEPKVRQLQQNATQAEVNRLSVRMELQADCFAGVWGHSMQQQGVLETGDLEEALNAAQAIGDDRLQQQSQGRVVPDSFTHGTSQQRYSWFKRGFDSGDPAQCNTFGKSI`
Result: 5.54
